# Test system: LOC_OS01G10900-cb004
# Assay Name: thermal shift delta Tm vs DMSO control; higher = stronger stabilization (binding);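 note: purified Escherichia coli-expressed rice kinase domain construct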
# Experimental Conditions: 12.5 µM; protein concentration 2 µM
Record form. Attribute: thermal shift delta Tm. Fill in for each entry.
Kindly format the answer as number then unit.

Which thermal shift delta Tm is reported for this compound? Cn1c(=O)c(F)c(Nc2ccc(I)cc2F)c2c(=O)n(C[C@@H](O)CO)cnc21
0.49 °C

Quick one: thermal shift delta Tm for C[C@H]1[C@H](C)CC[C@]2(C(=O)O)CC[C@]3(C)C(=CC[C@@H]4[C@@]5(C)C[C@@H](O)[C@H](O)[C@@](C)(CO)[C@@H]5CC[C@]43C)[C@H]12 [Asiatic Acid] ?
0.15 °C

Item COC(=O)N[C@@H](C)CNc1nccc(-c2cn(C(C)C)nc2-c2cc(Cl)cc(NS(C)(=O)=O)c2F)n1 [Encorafenib (LGX818)] has what recorded thermal shift delta Tm?
0.1 °C

Which thermal shift delta Tm reading was recorded for the compound CCN(CC)CCNC(=O)c1c(C)[nH]c(/C=C2\C(=O)Nc3ccc(F)cc32)c1C [Sunitinib Malate] ?
0.54 °C

May I ask what thermal shift delta Tm has been recorded for N#CC[C@H](C1CCCC1)n1cc(-c2ncnc3[nH]ccc23)cn1 ?
0.65 °C

Value lookup for thermal shift delta Tm; key = CN1C(=O)[C@@H](NC(=O)c2n[nH]c(Cc3ccccc3)n2)COc2ccccc21
0.07 °C

Please look up its thermal shift delta Tm: Nc1cccc(S(=O)(=O)N2CCCN(S(=O)(=O)c3ccc4c(c3)OCCO4)CC2)c1
0.15 °C

Entry Clc1ccc(Nc2nnc(Cc3ccncc3)c3ccccc23)cc1 [Vatalanib (PTK787) 2HCl] has what thermal shift delta Tm?
-0.92 °C

Entry O=c1sn(-c2cccc3ccccc23)c(=O)n1Cc1ccccc1 [Tideglusib] has what thermal shift delta Tm?
-0.23 °C

Can you share its thermal shift delta Tm? I mean this compound: C=CC(=O)Nc1ccc(CN2C(=O)N(c3cc(OC)cc(OC)c3)Cc3cnc(Nc4ccc(N5CCN(C)CC5)cc4)nc32)cc1
4.79 °C

What value of thermal shift delta Tm has been reported for the following compound? Oc1cc(CNC(=S)/C=C/c2cc(O)c(O)c(Br)c2)cc(O)c1O
-0.23 °C

Look up thermal shift delta Tm: CCc1cncnc1N1CCN(Cc2nc3ccc(C(F)(F)F)cc3[nH]2)CC1
0.36 °C

Entry Cn1cc(-c2cnn3c(N)c(Br)c([C@@H]4CCCNC4)nc23)cn1 : reported thermal shift delta Tm = ?
0.35 °C

Suppose we examine the compound COc1cc2ncnc(Nc3ccc(F)c(Cl)c3)c2cc1OCCCN1CCOCC1 [Gefitinib (ZD1839)] ; what thermal shift delta Tm value has been reported?
3.7 °C

Can you share its thermal shift delta Tm? I mean this compound: COc1ccc(-c2cc3nccn3c(Nc3ncccc3C(N)=O)n2)cc1OC
1.83 °C

What value of measured thermal shift delta Tm is listed for Cc1cc(Nc2ncnc3ccc(NC4=NC(C)(C)CO4)cc23)ccc1Oc1ccn2ncnc2c1 [Irbinitinib (ARRY-380, ONT-380)] ?
0.3 °C

thermal shift delta Tm lookup needed for CN1CCN(CCOc2cc(OC3CCOCC3)c3c(Nc4c(Cl)ccc5c4OCO5)ncnc3c2)CC1 [Saracatinib (AZD0530)] , thanks.
0.58 °C

----------
Give thermal shift delta Tm for every item shown.
# Tested on: LOC_OS05G30820-cb001
# Assay Name: thermal shift delta Tm vs DMSO control; higher = stronger stabilization (binding)
# Experimental Conditions: 12.5 µM; protein concentration 2 µM
Express the result in °C but write the number alone.

Any idea what its thermal shift delta Tm is? The compound is FC(F)c1nc2ccccc2n1-c1nc(N2CCOCC2)nc(N2CCOCC2)n1
0.54

Quick one: thermal shift delta Tm for COC1(c2sc3c(N4CCOCC4)nc(-c4cnc(N)nc4)nc3c2C)COC1 ?
0.59

What does the data say about its thermal shift delta Tm? Entry: Nc1cccc(-c2cc3c(Oc4cccc(O)c4)ncnc3[nH]2)c1
1.14

Please look up its thermal shift delta Tm: Cc1ccc(NC(=O)Nc2cc(C(F)(F)F)ccc2F)cc1Nc1ccc2c(c1)NC(=O)/C2=C\c1ccc[nH]1
0.73

Which thermal shift delta Tm reading was recorded for the compound O=C(c1cccc(Cl)c1F)N1CCN(Cc2cccc(Nc3nccs3)n2)CC1 ?
0.31

I would be grateful if you could share the reported thermal shift delta Tm for CNC(=O)c1cc(Oc2ccc(NC(=O)Nc3cc(C(C)(C)C)nn3-c3ccc4ncccc4c3)c(F)c2)ccn1 .
1.05

Reported thermal shift delta Tm for O=C1NC(=O)C(c2ccccc2[N+](=O)[O-])=C1Nc1ccc(O)c(Cl)c1 : what is it?
0.7

Sample COc1cc2ncc(-c3ccccc3)nc2cc1OC — what was its thermal shift delta Tm?
0.8
